target: CHIKV virus-like particles (strain 37997) (chikungunya virus)
pKd: −log10 of the molar value.
REPORTED_METRIC: pKd

>>> test_result("monovalent mouse MXRA8 (cleaved from mouse MXRA8-Fc with GlySERIAS) (from UniProt Q9DBV4 20-340) (receptor)")
7.12

====

target: CHIKV virus-like particles (strain 37997) (chikungunya virus)
REPORTED_METRIC: Kd (nM)

>>> test_result("monovalent Du-D1-Mo-D2 MXRA8 (cleaved from the Fc fusion with GlySERIAS) (from UniProt Q9DBV4 23-65; Q9DBV4 195-293) (receptor)")
665
